Consider the following compounds and their measured aPTT (1.5x) readings.
system: Human plasma (intrinsic coagulation cascade); assay: Activated Partial Thromboplastin Time (aPTT) Assay; conditions: concentration that causes a 50% (1.5×) increase of clot time over vehicle

Field: example entries. Status: answers known.
CC1CC1C[C@@H](C(=O)Nc1ccc(C(=O)O)cc1)c1ccc(-c2c(C(F)F)ccc(Cl)c2F)c[n+]1[O-] (single isomer, unassigned) [Example 63]
2.13 µM
O=C(O)c1ccc(NC(=O)C(CC23CC(C2)C3)c2ccc(-c3c(C(F)F)ccc(Cl)c3F)c[n+]2[O-])cc1F (single isomer, unassigned)
1.76 µM

query: Which aPTT (1.5x) is listed for O=C(O)c1ccc(NC(=O)C(CC2CCCC2)c2ccc(-c3c(OC(F)F)ccc(Cl)c3F)c[n+]2[O-])cc1 (single isomer, unassigned) [Example 18] ?
result: >100 µM
